Entry source: ChEMBL document CHEMBL1151735

- MEASURED_ON: 11-beta-hydroxysteroid dehydrogenase 1 (Homo sapiens, UniProt P28845)
- Sequence (P28845 whole entry): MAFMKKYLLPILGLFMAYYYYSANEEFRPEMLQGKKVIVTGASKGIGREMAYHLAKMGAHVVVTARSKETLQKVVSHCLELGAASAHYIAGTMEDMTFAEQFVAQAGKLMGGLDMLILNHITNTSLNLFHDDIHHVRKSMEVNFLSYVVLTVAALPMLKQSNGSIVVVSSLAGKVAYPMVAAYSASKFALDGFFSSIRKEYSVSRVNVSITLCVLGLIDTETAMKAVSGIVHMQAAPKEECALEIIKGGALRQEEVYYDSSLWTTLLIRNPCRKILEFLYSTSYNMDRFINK
- TEST_PROTOCOL: Inhibition of human recombinant 11beta-HSD1 expressed in Escherichia coli using [3H]cortisone by scintillation proximity assay
pKi: −log10 of the molar value.
READOUT_TYPE: pKi

> print(dat)
                                   compound                               measured.on  readout.type  result.value
1  C[C@H](NC1=NC(=O)C(C)(C2(O)CCCC2)S1)c1ccc(F)cc1 (stereo partly drawn)  11-beta-hydroxysteroid dehydrogenase 1 (Homo sapiens, UniProt P28845)           pKi          7.60
2  C[C@H](NC1=NC(=O)C(C)(C(C)(C)O)S1)c1ccccc1F (stereo partly drawn)  11-beta-hydroxysteroid dehydrogenase 1 (Homo sapiens, UniProt P28845)           pKi          7.47
3  C[C@H](NC1=NC(=O)C(C)(C(C)(C)O)S1)c1ccccc1C(F)(F)F (stereo partly drawn)  11-beta-hydroxysteroid dehydrogenase 1 (Homo sapiens, UniProt P28845)           pKi          7.60
4  C[C@H](NC1=NC(=O)C(C)(C2(O)CCC2)S1)c1ccc(F)cc1 (stereo partly drawn)  11-beta-hydroxysteroid dehydrogenase 1 (Homo sapiens, UniProt P28845)           pKi          7.31
5  C[C@H](NC1=NC(=O)[C@@](C)(C(C)(C)O)S1)c1ccc(F)cc1  11-beta-hydroxysteroid dehydrogenase 1 (Homo sapiens, UniProt P28845)           pKi          6.68
6  C[C@H](NC1=NC(=O)C(C)(C(C)(C)O)S1)c1ccccc1Cl (stereo partly drawn)  11-beta-hydroxysteroid dehydrogenase 1 (Homo sapiens, UniProt P28845)           pKi          7.59
7  C[C@H](NC1=NC(=O)[C@](C)(C(C)(C)O)S1)c1ccc(F)cc1  11-beta-hydroxysteroid dehydrogenase 1 (Homo sapiens, UniProt P28845)           pKi          7.46
8  C[C@H](NC1=NC(=O)C(C)(C(C)(C)O)S1)c1ccc(F)cc1 (stereo partly drawn)  11-beta-hydroxysteroid dehydrogenase 1 (Homo sapiens, UniProt P28845)           pKi          7.19

====

- MEASURED_ON: Nuclear receptor subfamily 1 group I member 2 (Homo sapiens)
- Sequence (O75469 whole entry): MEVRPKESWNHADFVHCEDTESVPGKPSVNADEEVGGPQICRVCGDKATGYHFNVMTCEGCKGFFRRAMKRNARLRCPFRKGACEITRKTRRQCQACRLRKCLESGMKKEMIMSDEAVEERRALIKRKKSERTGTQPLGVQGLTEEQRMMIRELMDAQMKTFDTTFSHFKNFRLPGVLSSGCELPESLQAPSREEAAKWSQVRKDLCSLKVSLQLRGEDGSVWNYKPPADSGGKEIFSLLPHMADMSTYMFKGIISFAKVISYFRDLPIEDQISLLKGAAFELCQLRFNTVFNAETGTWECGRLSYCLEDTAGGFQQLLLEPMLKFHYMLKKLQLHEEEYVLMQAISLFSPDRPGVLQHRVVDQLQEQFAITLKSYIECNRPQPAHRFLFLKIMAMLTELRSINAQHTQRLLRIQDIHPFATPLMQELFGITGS
- TEST_PROTOCOL: Transactivation of human PXR transfected in HEK cells at 20 uM by luciferase reporter gene assay relative to 12.5 uM rifampin
- Assay type: cell-based
- SETTINGS: hek293, 20 µM
READOUT_TYPE: Activity (%)

> print(dat)
                                    compound                               measured.on  result.value
 1  C[C@H](NC1=NC(=O)C(C)(c2ccc(C(=O)N3CCCC3)cc2)S1)c1ccc(F)cc1 (stereo not given in full)  Nuclear receptor subfamily 1 group I member 2 (Homo sapiens)            35
 2  C[C@H](NC1=NC(=O)[C@](C)(C(C)(C)O)S1)c1ccc(F)cc1  Nuclear receptor subfamily 1 group I member 2 (Homo sapiens)             6
 3  C[C@H](NC1=NC(=O)C(C)(CC(C)(C)O)S1)c1ccc(F)cc1 (stereo not given in full)  Nuclear receptor subfamily 1 group I member 2 (Homo sapiens)            28
 4  C[C@H](NC1=NC(=O)C(C)(C(C)(C)O)S1)c1ccc(F)cc1 (stereo not given in full)  Nuclear receptor subfamily 1 group I member 2 (Homo sapiens)            10
 5  C[C@H](NC1=NC(=O)C(C)(c2ccc(CO)cc2)S1)c1ccc(F)cc1 (stereo not given in full)  Nuclear receptor subfamily 1 group I member 2 (Homo sapiens)            25
 6  C[C@H](NC1=NC(=O)C(C)(C(C)(C)O)S1)c1ccccc1C(F)(F)F (stereo not given in full)  Nuclear receptor subfamily 1 group I member 2 (Homo sapiens)            43
 7  C[C@H](NC1=NC(=O)C(C)(c2ccc(F)cc2)S1)c1ccc(F)cc1 (stereo not given in full)  Nuclear receptor subfamily 1 group I member 2 (Homo sapiens)            65
 8  C[C@H](NC1=NC(=O)C(C)(c2ccc(C3(C(N)=O)CC3)cc2)S1)c1ccc(F)cc1 (stereo not given in full)  Nuclear receptor subfamily 1 group I member 2 (Homo sapiens)            97
 9  C[C@H](NC1=NC(=O)C(C)(C(C)(C)O)S1)c1ccccc1F (stereo not given in full)  Nuclear receptor subfamily 1 group I member 2 (Homo sapiens)            19
10  C[C@H](NC1=NC(=O)C(C)(C(C)(C)O)S1)c1ccccc1 (stereo not given in full)  Nuclear receptor subfamily 1 group I member 2 (Homo sapiens)            68

====

- TEST_PROTOCOL: Volume of distribution at steady state in monkey at 2 mg/kg, iv and 10 mg/kg, po
- Type: ADME, organism-based, Macaca mulatta
- SETTINGS: rhesus monkey, in vivo, read-out: Vdss
READOUT_TYPE: Vd (L/kg)

> print(dat)
                                smiles.data  readout.type  result.value
1  C[C@H](NC1=NC(=O)[C@](C)(C(C)(C)O)S1)c1ccc(F)cc1            Vd           1.9

====

- TEST_PROTOCOL: Half life in mouse at 2 mg/kg, iv
- Format: ADME, organism-based
- Set-up: dose 2 mg/kg, route intravenous
- SETTINGS: in vivo
READOUT_TYPE: half-life (h)

> print(dat)
                                smiles.data  result.value
1  C[C@H](NC1=NC(=O)[C@](C)(C(C)(C)O)S1)c1ccc(F)cc1           3.3

====

- MEASURED_ON: PXR (nuclear receptor subfamily 1 group I member 2) (Homo sapiens)
- TEST_PROTOCOL: Transactivation of human PXR transfected in HEK cells at 2 uM by luciferase reporter gene assay relative to 12.5 uM rifampin
- Assay type: cell-based
- SETTINGS: HEK293 cells transfected with human PXR, read-out: Activity
READOUT_TYPE: activity at 2 µM (%)

> print(dat)
                                   molecule                               measured.on      readout.type  unit.name  result.value
1  C[C@H](NC1=NC(=O)C(C)(c2ccc(CO)cc2)S1)c1ccc(F)cc1 (stereo not given in full)  PXR (nuclear receptor subfamily 1 group I member 2) (Homo sapiens)  activity at 2 µM          %           2.3
2  C[C@H](NC1=NC(=O)C(C)(c2ccc(F)cc2)S1)c1ccc(F)cc1 (stereo not given in full)  PXR (nuclear receptor subfamily 1 group I member 2) (Homo sapiens)  activity at 2 µM          %            64
3  C[C@H](NC1=NC(=O)C(C)(c2ccc(C(N)=O)cc2)S1)c1ccc(F)cc1 (stereo not given in full)  PXR (nuclear receptor subfamily 1 group I member 2) (Homo sapiens)  activity at 2 µM          %           0.8
4  C[C@H](NC1=NC(=O)C(C)(c2ccc(C(=O)N3CCCC3)cc2)S1)c1ccc(F)cc1 (stereo not given in full)  PXR (nuclear receptor subfamily 1 group I member 2) (Homo sapiens)  activity at 2 µM          %           4.1
5  C[C@H](NC1=NC(=O)C(C)(c2ccc(C3(C(N)=O)CC3)cc2)S1)c1ccc(F)cc1 (stereo not given in full)  PXR (nuclear receptor subfamily 1 group I member 2) (Homo sapiens)  activity at 2 µM          %           6.7

====

- TEST_PROTOCOL: Oral bioavailability in mouse at 10 mg/kg
- Type: ADME, organism-based
- SETTINGS: in vivo
READOUT_TYPE: bioavailability

> print(dat)
                                smiles.data  result.value
1  C[C@H](NC1=NC(=O)[C@](C)(C(C)(C)O)S1)c1ccc(F)cc1          100%

====

- TEST_PROTOCOL: Volume of distribution at steady state in rat at 2 mg/kg, iv and 5 mg/kg, po
- Type: ADME, organism-based
- SETTINGS: in vivo, read-out: Vdss
READOUT_TYPE: Vd (L/kg)

> print(dat)
                                smiles.data  readout.type  unit.name  result.value
1  C[C@H](NC1=NC(=O)[C@](C)(C(C)(C)O)S1)c1ccc(F)cc1            Vd       L/kg           2.5

====

- TEST_PROTOCOL: Clearance in monkey at 2 mg/kg, iv and 10 mg/kg, po
- Format: ADME, organism-based, Macaca mulatta
- SETTINGS: rhesus monkey, in vivo
READOUT_TYPE: clearance

> print(dat)
                                smiles.data  readout.type  result.value
1  C[C@H](NC1=NC(=O)[C@](C)(C(C)(C)O)S1)c1ccc(F)cc1     clearance  20 mL/min/kg
